Recorded values, source patent US7582611B2.

experimental.system: Motilin Receptor (Oryctolagus cuniculus, UniProt G1T803)
Construct: strips of longitudinal smooth muscle were sliced from the segments; from tissue; host or cells: rabbit duodenum longitudinal smooth muscle strips
Sequence (G1T803 1-400): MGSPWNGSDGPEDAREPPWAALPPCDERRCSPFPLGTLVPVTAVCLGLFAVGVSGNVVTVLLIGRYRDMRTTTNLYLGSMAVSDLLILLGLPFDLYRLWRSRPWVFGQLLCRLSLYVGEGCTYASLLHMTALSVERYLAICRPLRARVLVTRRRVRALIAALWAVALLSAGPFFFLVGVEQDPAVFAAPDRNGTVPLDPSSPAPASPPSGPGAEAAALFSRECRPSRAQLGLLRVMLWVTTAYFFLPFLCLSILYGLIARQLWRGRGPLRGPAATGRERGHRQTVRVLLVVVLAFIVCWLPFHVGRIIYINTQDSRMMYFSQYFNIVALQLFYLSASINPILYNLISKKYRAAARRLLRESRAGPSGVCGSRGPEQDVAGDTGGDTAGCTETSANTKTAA
assay.explanation: Tissue based assay for motilin agonist potency (rabbit duodenum contractility)
Format: cell-based
study.conditions: rabbit duodenum strips, contraction normalized to 1 μM carbachol; read-out: Motilin Receptor Agonist Activity (EC50)
pEC50: −log10 of the molar value.
measurement.type: pEC50

molecule="CC[C@H]1OC(=O)[C@H](C)[C@@H](O[C@H]2C[C@@](C)(OC)[C@@H](O)[C@H](C)O2)[C@H](C)[C@@H](O[C@@H]2O[C@H](C)C[C@H](N(C)C(C)C)[C@H]2O)[C@](C)(O)C[C@@H](C)[C@H](OCc2csc(C)n2)[C@H](C)[C@@H](O)[C@]1(C)O [Compound A-26]" measurement_type=pEC50 recorded_result=6.32
molecule="CC[C@H]1OC(=O)[C@H](C)[C@@H](O[C@H]2C[C@@](C)(OC)[C@@H](O)[C@H](C)O2)[C@H](C)[C@@H](O[C@@H]2O[C@H](C)C[C@H](N(C)CCO)[C@H]2O)[C@](C)(O)C[C@@H](C)[C@H](OC)[C@H](C)[C@@H](O)[C@]1(C)O [Compound A-2]" measurement_type=pEC50 recorded_result=6.85
molecule="CC[C@H]1OC(=O)[C@H](C)[C@@H](O[C@H]2C[C@@](C)(OC)[C@@H](O)[C@H](C)O2)[C@H](C)[C@@H](O[C@@H]2O[C@H](C)C[C@H](N(C)C(C)C)[C@H]2O)[C@](C)(O)C[C@@H](C)[C@H](OCC#N)[C@H](C)[C@@H](O)[C@]1(C)O [Compound A-7]" measurement_type=pEC50 recorded_result=6.68
molecule="CC[C@H]1OC(=O)[C@H](C)[C@@H](O[C@H]2C[C@@](C)(OC)[C@@H](O)[C@H](C)O2)[C@H](C)[C@@H](O[C@@H]2O[C@H](C)C[C@H](N(C)C(C)C)[C@H]2O)[C@](C)(O)C[C@@H](C)[C@H](OCCOC)[C@H](C)[C@@H](O)[C@]1(C)O [Compound A-5]" measurement_type=pEC50 recorded_result=6.49
